# Lookup of reported concentration at 5 min keyed by entry
procedure_text: Mean plasma levels in rats at a time 5 min after iv administration of 100 mg/kg of probenecid 5 min prior to test compound
Type: ADME, organism-based
Set-up: dose 100 mg/kg, route intravenous
condition_info: rat, read-out: Plasma levels
Give the number; µg/mL is assumed, so skip it.

Nc1nc(CC(=O)N[C@@H]2C(=O)N3C(C(=O)O)=C(Cl)CS[C@H]23)cs1 57.5

query: // query concentration at 5 min value for entry O=C(COc1ccccc1)N[C@@H]1C(=O)N2C(C(=O)O)=C(Cl)CS[C@H]12
result: 66

* * *

procedure_text: Mean plasma levels in rats 2 hr after iv administration of 100 mg/kg of probenecid 5 min prior to test compound
Format: ADME, organism-based
Parameters: dose 100 mg/kg, route intravenous
condition_info: rat, read-out: Plasma level
measurement_type: concentration at 2 h (ng/mL)
Supply the numeric figure in ng/mL, leaving out any unit text.

query: Fill in the blank: the reported concentration at 2 h of CC1(C)S[C@@H]2[C@H](NC(=O)COc3ccccc3)C(=O)N2[C@H]1C(=O)O is ____.
result: 800

The values you see were collected from ChEMBL document CHEMBL1123985.
